Tested on: HPAC
Experiment: ATP luminescence proliferation assay, HPAC
Assay type: cell-based, human
Conditions: Homo sapiens, 72 h, read-out: EC50 HPAC (72 h), ATP luminescence, HPAC, 72 h incubation
Mark each entry class 1 if its EC50 sits below 1 nM, and class 0 for all others.

{"COMPOUND": "CC[C@H](C)[C@H](NC(=O)[C@H]1CCCCN1C)C(=O)N(C)[C@H](C[C@@H](OC)c1nc(C(=O)N[C@@H](Cc2ccccc2)C(=O)N[C@@H](C)C(=O)OC)cs1)C(C)C", "MEASURED_TARGET": "HPAC", "ANSWER_LABEL": "class 0"}
{"COMPOUND": "CC[C@H](C)[C@H](NC(=O)[C@H]1CCCCN1C)C(=O)N(COC(=O)CC(C)C)[C@H](C[C@@H](OC(C)=O)c1nc(C(=O)N[C@@H](Cc2ccc(N)cc2)CC(C)C(=O)O)cs1)C(C)C (some centres unmarked)", "MEASURED_TARGET": "HPAC", "ANSWER_LABEL": "class 1"}

Q: I wonder whether `CC[C@H](C)[C@H](NC(=O)[C@H]1CCCCN1C)C(=O)N(C)[C@H](C[C@@H](OC)c1nc(C(=O)N[C@H](CCC(=O)OC)Cc2ccccc2)cs1)C(C)C` has EC50 below 1 nM. Can you tell?
Result: class 0

Q: Again, but for CC[C@H](C)[C@H](NC(=O)[C@H]1CCCCN1C)C(=O)N(C)[C@H](C[C@@H](OC(C)=O)c1nc(C(=O)N[C@@H](Cc2ccc(N)cc2)CC(C)C(=O)O)cs1)C(C)C (some centres unmarked)
Result: class 0

Q: Again, but for `CC[C@H](C)[C@H](NC(=O)[C@H]1CCCCN1C)C(=O)N(C)[C@H](C[C@@H](OC)c1nc(C(=O)N[C@H](CC(=O)OC)Cc2ccccc2)cs1)C(C)C`
Result: class 0

* * *

pEC50 by entry:
Test system: OVCAR3
Experiment: ATP luminescence proliferation assay, OVCAR3
Format: cell-based, human
Conditions: Homo sapiens, OVCAR-3, 48 h, read-out: EC50 OVCAR3 (48 h), ATP luminescence, OVCAR3, 48 h incubation
pEC50: −log10 of the molar value.

Please review the entries below; each comes with its answer.
{"COMPOUND": "CC[C@H](C)[C@H](NC(=O)[C@H]1CCCCN1C)C(=O)N(C)[C@H](C[C@@H](OC(C)=O)c1nc(C(=O)N[C@@H](Cc2ccc(N)cc2)CC(C)C(=O)O)cs1)C(C)C (stereo partly drawn)", "MEASURED_TARGET": "OVCAR3", "RECORDED_RESULT": "< 6.52"}
{"COMPOUND": "CC[C@H](C)[C@H](NC(=O)[C@H]1CCCCN1C)C(=O)N(C)[C@H](C[C@@H](OC)c1nc(C(=O)N[C@@H](Cc2ccccc2)C(=O)N[C@@H](C)C(=O)OC)cs1)C(C)C", "MEASURED_TARGET": "OVCAR3", "RECORDED_RESULT": 7.54}

Q: Looking for the measured pEC50 of CC[C@H](C)[C@H](NC(=O)[C@H]1CCCCN1C)C(=O)N(C)[C@H](C[C@@H](OC)c1nc(C(=O)NC(Cc2ccccc2)C[C@H](C)C(=O)O)cs1)C(C)C (stereo partly drawn) , can you help?
Result: < 7.00

Q: Again, but for CCCC(NC(=O)c1csc([C@@H](C[C@H](C(C)C)N(C)C(=O)[C@@H](NC(=O)[C@H]2CCCCN2C)[C@@H](C)CC)OC)n1)C(=O)OC (stereo partly drawn)
Result: < 7.00

Q: Again, but for CC[C@H](C)[C@H](NC(=O)[C@H]1CCCCN1C)C(=O)N(COC(=O)CC(C)C)[C@H](C[C@@H](OC(C)=O)c1nc(C(=O)N[C@@H](Cc2ccc(N)cc2)CC(C)C(=O)O)cs1)C(C)C (stereo partly drawn)
Result: < 7.00

Q: Again, but for `CC[C@H](C)[C@H](NC(=O)[C@H]1CCCCN1C)C(=O)N(C)[C@H](C[C@@H](OC)c1nc(C(=O)N[C@H](CC(=O)OC)Cc2ccccc2)cs1)C(C)C`
Result: < 5.52
